Listed next: entries and their corresponding MIC.
- Test system: Bacillus cereus
- method-summary: Antibacterial activity against Bacillus cereus by almar blue dye reduction assay
- Type: functional
# number only, unit µg/mL dropped from output

Please review the following examples before continuing.
C[C@H](C[C@@H]1CC[C@H]([C@@H](C)C(=O)N2CCN(CC3CCCO3)CC2)O1)n1cc(C#CCOc2cccc(-c3ccccc3)c2)nn1 (stereo partly drawn)	150
C[C@H](C[C@@H]1CC[C@H]([C@@H](C)C(=O)N2CCN(CC3CCCO3)CC2)O1)n1cc(C#Cc2cccc3ccccc23)nn1 (stereo partly drawn)	260
C[C@H](C[C@@H]1CC[C@H]([C@@H](C)C(=O)N(C)Cc2ccccc2)O1)n1cc(C#CCN(C)CCc2ccccc2)nn1	250
CCOC(=O)C#Cc1cn([C@H](C)CC2CCC([C@@H](C)C(=O)N3CCN(CC4CCCO4)CC3)O2)nn1 (single isomer, unassigned)	240
Cc1cccc(NC(=O)OCC#Cc2cn([C@H](C)CC3CCC([C@@H](C)C(=O)N4CCN(CC5CCCO5)CC4)O3)nn2)c1 (single isomer, unassigned)	570

Query: Give the value of MIC reported for the following: "C[C@H](C[C@@H]1CC[C@H]([C@@H](C)C(=O)N(C)Cc2ccccc2)O1)n1cc(C#CCC2CCCC2)nn1"
Response: 440

Query: Query MIC for "CCCCN(CC#Cc1cn([C@H](C)C[C@@H]2CC[C@H]([C@@H](C)C(=O)N(C)Cc3ccccc3)O2)nn1)CCCC"
Response: 250

Query: Using the record for "CCCCCC#Cc1cn([C@H](C)C[C@@H]2CC[C@H]([C@@H](C)C(=O)N(C)Cc3ccccc3)O2)nn1" , state its measured MIC.
Response: 640

* * *

- Tested on: Bacillus cereus
- method-summary: Antibacterial activity against Bacillus cereus at 1 mM by almar blue dye reduction assay
- Format: functional, organism-based
Calls of active or inactive are those of the source. The rule behind the calls is not given here.
measured-parameter: Activity

For orientation, consider the following solved cases.
CC(C)NC(=O)[C@H](C)[C@H]1CC[C@@H](C[C@@H](C)n2cc(C#Cc3ccc(C(F)(F)F)cc3)nn2)O1	inactive
CCCCCC#Cc1cn([C@H](C)C[C@@H]2CC[C@H]([C@@H](C)C(=O)NC(C)C)O2)nn1	inactive
C[C@H](C[C@@H]1CC[C@H]([C@@H](C)C(=O)N(C)Cc2ccccc2)O1)n1cc(C#CCN2CCN(c3ccccc3)CC2)nn1	inactive
CCN(CC)C(=O)[C@H](C)[C@H]1CC[C@@H](C[C@@H](C)n2cc(C#CCOc3ccc(C(F)(F)F)cc3)nn2)O1	inactive
C[C@H](C[C@@H]1CC[C@H]([C@@H](C)C(=O)N2CCN(CC3CCCO3)CC2)O1)n1cc(C#CCOc2ccc(C(F)(F)F)cc2)nn1 (stereo not given in full)	inactive
CC(C)NC(=O)[C@H](C)[C@H]1CC[C@@H](C[C@@H](C)n2cc(C#CCN(C)C)nn2)O1	inactive
CCCNC(=O)NCC#Cc1cn([C@H](C)CC2CCC([C@@H](C)C(=O)N3CCCC3)O2)nn1 (single isomer, unassigned)	inactive
C[C@H](C[C@@H]1CC[C@H]([C@@H](C)C(=O)N(C)Cc2ccccc2)O1)n1cc(C#Cc2ccccc2)nn1	inactive

Query: Please list Activity recorded for the compound C[C@H](C[C@@H]1CC[C@H]([C@@H](C)C(=O)N2CCN(CC3CCCO3)CC2)O1)n1cc(C#CCOc2ccccc2)nn1 (stereo not given in full)
Response: inactive

Query: Supply recorded Activity for "CC(C)NC(=O)[C@H](C)[C@H]1CC[C@@H](C[C@@H](C)n2cc(C#CCc3ccccc3)nn2)O1" here.
Response: inactive

Query: Hello, please tell me recorded Activity for this one: CCCNC(=O)NCC#Cc1cn([C@H](C)CC2CCC([C@@H](C)C(=O)N3CCN(CC4CCCO4)CC3)O2)nn1 (single isomer, unassigned)
Response: inactive

Query: Supply recorded Activity for COCC#Cc1cn([C@H](C)C[C@@H]2CC[C@H]([C@@H](C)C(=O)N3CCN(CC4CCCO4)CC3)O2)nn1 (stereo not given in full) here.
Response: inactive

Query: Let me know recorded Activity for "CCN(CC)C(=O)[C@H](C)[C@H]1CC[C@@H](C[C@@H](C)n2cc(C#Cc3ccccc3)nn2)O1" , thanks.
Response: inactive

Query: Tell me Activity reported for "CC(C)NC(=O)[C@H](C)[C@H]1CC[C@@H](C[C@@H](C)n2cc(C#CCC3CCCC3)nn2)O1"
Response: inactive

Query: Given the compound COc1ccc(C#Cc2cn([C@H](C)C[C@@H]3CC[C@H]([C@@H](C)C(=O)N4CCN(CC5CCCO5)CC4)O3)nn2)cc1 (stereo not given in full) , write its reported Activity.
Response: inactive

* * *

- System: Staphylococcus aureus
- method-summary: Antibacterial activity against Staphylococcus aureus at 1 mM by almar blue dye reduction assay
- Assay type: functional, organism-based
Active and inactive are the calls of the source. The rule behind the calls is not given here.
measured-parameter: Activity

COc1cccc(OCC#Cc2cn([C@H](C)C[C@@H]3CC[C@H]([C@@H](C)C(=O)N4CCCC4)O3)nn2)c1OC	inactive
C[C@H](C[C@@H]1CC[C@H]([C@@H](C)C(=O)N2CCCC2)O1)n1cc(C#CCOc2cccc(-c3ccccc3)c2)nn1	inactive
C[C@H](C[C@@H]1CC[C@H]([C@@H](C)C(=O)N(C)Cc2ccccc2)O1)n1cc(C#CCOc2cccc(-c3ccccc3)c2)nn1	inactive
COc1ccc(C#Cc2cn([C@H](C)C[C@@H]3CC[C@H]([C@@H](C)C(=O)N4CCCC4)O3)nn2)cc1	inactive

* * *

Each record here notes measured MIC.
- Tested on: Cryptococcus neoformans
- method-summary: Antifungal activity against Cryptococcus neoformans at by almar blue dye reduction assay
- Type: functional
Please give a number only; it is taken to be in µg/mL.

Please review the following examples before continuing.
C[C@H](C[C@@H]1CC[C@H]([C@@H](C)C(=O)N2CCN(CC3CCCO3)CC2)O1)n1cc(C#CCOc2cccc(-c3ccccc3)c2)nn1 (stereo partly drawn)	290
CCOC(=O)C#Cc1cn([C@H](C)CC2CCC([C@@H](C)C(=O)N3CCN(CC4CCCO4)CC3)O2)nn1 (single isomer, unassigned)	480

Query: Provide the reported MIC (system: Cryptococcus neoformans) for "CCN(CC)C(=O)[C@H](C)[C@H]1CC[C@@H](C[C@@H](C)n2cc(C#CCOc3cccc(OC)c3OC)nn2)O1"
Response: 480

* * *

- Test system: Escherichia coli
- method-summary: Antibacterial activity against Escherichia coli at 1 mM by almar blue dye reduction assay
- Format: functional, organism-based
The source made the active and inactive calls. How the calls were made is not given here.
measured-parameter: Activity

Answered examples (6):
CCN(CC)C(=O)[C@H](C)[C@H]1CC[C@@H](C[C@@H](C)n2cc(C#Cc3ccccc3[N+](=O)[O-])nn2)O1	inactive
CC(C)NC(=O)[C@H](C)[C@H]1CC[C@@H](C[C@@H](C)n2cc(C#Cc3ccccc3)nn2)O1	inactive
C[C@H](CC1CCC([C@@H](C)C(=O)N(C)Cc2ccccc2)O1)n1cc(C#CCNC(=O)OCc2ccccc2)nn1 (single isomer, unassigned)	inactive
CCN(CC)C(=O)[C@H](C)[C@H]1CC[C@@H](C[C@@H](C)n2cc(C#CCCCC#N)nn2)O1	inactive
C[C@H](C[C@@H]1CC[C@H]([C@@H](C)C(=O)N2CCN(CC3CCCO3)CC2)O1)n1cc(C#CC2=CCCCC2)nn1 (some centres not stated)	inactive
C[C@H](C[C@@H]1CC[C@H]([C@@H](C)C(=O)N2CCCC2)O1)n1cc(C#Cc2ccccc2)nn1	inactive

Query: Please supply the value of reported Activity for the item "CC(C)CC#Cc1cn([C@H](C)C[C@@H]2CC[C@H]([C@@H](C)C(=O)N(C)Cc3ccccc3)O2)nn1"
Response: inactive

* * *

- Test system: Escherichia coli
- method-summary: Antibacterial activity against Escherichia coli at 1 mM by almar blue dye reduction assay
- Assay type: functional, organism-based
Activity calls are given as the source filed them. No rule for the calls is given here.
measured-parameter: Activity

C[C@H](C[C@@H]1CC[C@H]([C@@H](C)C(=O)N2CCN(CC3CCCO3)CC2)O1)n1cc(C#Cc2ccc(-c3ccccc3)cc2)nn1 (some centres undefined)	inactive
CCCCN(CC#Cc1cn([C@H](C)C[C@@H]2CC[C@H]([C@@H](C)C(=O)N(CC)CC)O2)nn1)CCCC	inactive
C[C@H](C[C@@H]1CC[C@H]([C@@H](C)C(=O)N2CCCC2)O1)n1cc(C#CCN(C)CCc2ccccc2)nn1	inactive
CCN(CC)C(=O)[C@H](C)[C@H]1CC[C@@H](C[C@@H](C)n2cc(C#Cc3cccc4ccccc34)nn2)O1	inactive
C[C@H](C[C@@H]1CC[C@H]([C@@H](C)C(=O)N2CCN(CC3CCCO3)CC2)O1)n1cc(C#Cc2cccc3ccccc23)nn1 (some centres undefined)	inactive

Query: Check the records and state Activity for "COc1ccc(C#Cc2cn([C@H](C)C[C@@H]3CC[C@H]([C@@H](C)C(=O)N(C)Cc4ccccc4)O3)nn2)cc1"
Response: inactive
